- study-system: UniProt:Q00910
- assay-notes: [3H]PGE2 uptake inhibition in MDCK cells stably transfected with rat PGT (percent inhibition and IC50)
- Assay type: cell-based
- condition-parameters: 5 μM compound; inhibition of [3H]PGE2 uptake
measurement-kind: Inh (% of Ctl) 5 μM

O=C(NCCOCCOCCNc1nc(Nc2ccc(O)cc2)nc(Nc2ccc(CO)cc2)n1)c1ccccc1 [compound 26]
35.2 % of Ctl
O=C(NCCOCCOCCNc1nc(Nc2ccccc2)nc(Nc2ccc(O)cc2)n1)c1ccccc1 [compound 4]
67.6 % of Ctl
O=C(O)c1ccc(Nc2nc(NCCOCCOCCNC(=O)c3ccccc3)nc(Nc3ccc(O)cc3)n2)cc1 [compound 13]
19.3 % of Ctl
CNC(=O)c1ccc(Nc2nc(NCCOCCOCCNC(=O)c3ccccc3)nc(Nc3ccc(O)cc3)n2)cc1 [compound 14]
35.9 % of Ctl
O=C(NCCOCCOCCNc1nc(Nc2ccccc2)nc(Nc2ccc3cn[nH]c3c2)n1)c1ccccc1 [compound 75]
10.1 % of Ctl
O=C(NCCCCCNc1nc(Nc2ccccc2)nc(Nc2ccc(O)cc2)n1)c1ccccc1 [compound 85]
12.2 % of Ctl
O=C(NCCOCCOCCNc1nc(Nc2ccc(O)cc2)nc(Nc2ccc(C(=O)NCc3ccc(F)cc3)cc2)n1)c1ccccc1 [compound 99]
89.4 % of Ctl
O=C(NCCOCCOCCNc1nc(Nc2ccc(O)cc2)nc(Nc2ccc(C(=O)NCc3cccc(-c4ccccc4)c3)cc2)n1)c1ccccc1 [compound 90]
72.7 % of Ctl
O=C(NCCOCCOCCNc1nc(Nc2ccc(O)cc2)nc(Nc2ccc(C(=O)NCc3ccc4[nH]ccc4c3)cc2)n1)c1ccccc1 [compound 94]
76.1 % of Ctl
CN(Cc1ccccc1)C(=O)c1ccc(Nc2nc(NCCOCCOCCNC(=O)c3ccccc3)nc(Nc3ccc(O)cc3)n2)cc1 [compound 68]
70.8 % of Ctl
O=C(NCCOCCOCCNc1nc(Nc2ccc(O)cc2)nc(Nc2ccc(C(=O)NCc3ccncc3)cc2)n1)c1ccccc1 [compound 71]
78.4 % of Ctl
O=C(CCCCCCNc1nc(Nc2ccccc2)nc(Nc2ccc(O)cc2)n1)NCc1ccccc1 [compound 97]
19.4 % of Ctl
Cc1ccc(CNC(=O)c2ccc(Nc3nc(NCCOCCOCCNC(=O)c4ccccc4)nc(Nc4ccc(O)cc4)n3)cc2)cc1 [compound 102]
88.0 % of Ctl
O=C(NCCOCCOCCNc1nc(Nc2ccccc2)nc(Nc2ccc(OCc3ccccc3)cc2)n1)c1ccccc1 [compound 2]
6.5 % of Ctl
O=C(O)c1ccc(CNC(=O)c2ccc(Nc3nc(NCCOCCOCCNC(=O)c4ccccc4)nc(Nc4ccc(O)cc4)n3)cc2)cc1 [compound 112]
49.4 % of Ctl
O=C(NCCOCCOCCNc1nc(Nc2ccc(O)cc2)nc(Nc2ccc(C(=O)NCc3ccc(Cl)cc3)cc2)n1)c1ccccc1 [compound 91]
88.0 % of Ctl
O=C(NCCOCCOCCNc1nc(Nc2ccc(O)cc2)nc(NC2CCCCC2)n1)c1ccccc1 [compound 27]
53.8 % of Ctl
O=C(NCCOCCOCCNc1nc(Nc2ccc(O)cc2)nc(Nc2ccc(C(=O)NCc3cccc(C(F)(F)F)c3)cc2)n1)c1ccccc1 [compound 101]
91.4 % of Ctl
CN(C)c1nc(NCCOCCOCCNC(=O)c2ccccc2)nc(Nc2ccc(OCc3ccccc3)cc2)n1 [compound 5]
9.6 % of Ctl
COc1ccc(CNC(=O)c2ccc(Nc3nc(NCCOCCOCCNC(=O)c4ccccc4)nc(Nc4ccc(O)cc4)n3)cc2)cc1 [compound 92]
80.6 % of Ctl
CC(C)(C)NC(=O)c1ccc(Nc2nc(NCCOCCOCCNC(=O)c3ccccc3)nc(Nc3ccc(O)cc3)n2)cc1 [compound 16]
44.8 % of Ctl
O=C(NCCCCNc1nc(Nc2ccccc2)nc(Nc2ccc(O)cc2)n1)c1ccccc1 [compound 84]
13.7 % of Ctl
O=C(O)Cc1ccc(Nc2nc(NCCOCCOCCNC(=O)c3ccccc3)nc(Nc3ccccc3)n2)cc1 [compound 57]
29.5 % of Ctl
O=C(NCCOCCOCCNc1nc(Nc2ccc(O)cc2)nc(Nc2ccc(C(=O)NCCc3ccccc3)cc2)n1)c1ccccc1 [compound 111]
93.2 % of Ctl
COCCOCCOCCNC(=O)c1ccc(Nc2nc(NCCOCCOCCNC(=O)c3ccccc3)nc(Nc3ccc(O)cc3)n2)cc1 [compound 19]
75.0 % of Ctl
O=C(NCCOCCOCCNc1nc(Nc2ccc(O)cc2)nc(Nc2ccc(C(=O)NCc3cccc(Cl)c3)cc2)n1)c1ccccc1 [compound 87]
90.6 % of Ctl
COc1ccc(Nc2nc(NCCOCCOCCNC(=O)c3ccccc3)nc(Nc3ccccc3)n2)cc1 [compound 1]
8.5 % of Ctl
O=C(NCCOCCOCCNc1nc(Nc2ccc(O)cc2)nc(Nc2ccc(O)cc2)n1)c1ccccc1 [compound 28]
56.5 % of Ctl
Cc1cccc(CNC(=O)c2ccc(Nc3nc(NCCOCCOCCNC(=O)c4ccccc4)nc(Nc4ccc(O)cc4)n3)cc2)c1 [compound 107]
91.3 % of Ctl
O=C(NCCOCCOCCNc1nc(Nc2ccccc2)nc(Nc2ccc3cn[nH]c3c2)n1)c1ccccc1 [compound 53]
83.4 % of Ctl

###

- study-system: rat PGT (Rattus norvegicus (Rat))
- assay-notes: [3H]PGE2 uptake inhibition in MDCK cells stably transfected with rat PGT (percent inhibition and IC50)
- Format: cell-based
- condition-parameters: 1 μM compound; inhibition of [3H]PGE2 uptake
measurement-kind: Inh (% of Ctl) 1 μM

O=C(NCCCCCCNc1nc(Nc2ccccc2)nc(Nc2ccc(O)cc2)n1)c1ccccc1
20.4 % of Ctl
O=C(O)Cc1ccc(Nc2nc(NCCOCCOCCNC(=O)c3ccccc3)nc(Nc3ccccc3)n2)cc1
27.4 % of Ctl
O=C(NCCOCCOCCNc1nc(NCCOCCOCCNC(=O)c2ccccc2)nc(Nc2ccc(O)cc2)n1)c1ccccc1
8.4 % of Ctl
O=C(NCCOCCOCCNc1nc(Nc2ccccc2)nc(Nc2ccc(O)cc2)n1)c1cccs1
42.9 % of Ctl
O=C(CCCCCCNc1nc(Nc2ccccc2)nc(Nc2ccc(O)cc2)n1)Nc1ccccc1
8.6 % of Ctl
COC(=O)c1ccc(Nc2nc(NCCOCCOCCNC(=O)c3ccccc3)nc(Nc3ccccc3)n2)cc1
7.5 % of Ctl
O=C(NCCOCCNc1nc(Nc2ccccc2)nc(Nc2ccc(O)cc2)n1)c1ccccc1
36.8 % of Ctl
O=C(NCCOCCOCCNc1nc(Nc2ccc(O)cc2)nc(Nc2ccc(C(=O)NCc3cc(F)ccc3F)cc2)n1)c1ccccc1
70.2 % of Ctl

###

- study-system: rat PGT (Rattus norvegicus (Rat), UniProt Q00910)
- assay-notes: [3H]PGE2 uptake inhibition in MDCK cells stably transfected with rat PGT (percent inhibition and IC50)
- Assay type: cell-based
- condition-parameters: 0.5 μM compound; inhibition of [3H]PGE2 uptake
measurement-kind: Inh (% of Ctl) 0.5 μM

CCCCCCNC(=O)c1ccc(Nc2nc(NCCOCCOCCNC(=O)c3ccccc3)nc(Nc3ccc4[nH]ncc4c3)n2)cc1 [compound 65]
18.4 % of Ctl
O=C(NCCOCCOCCNc1nc(Nc2ccc(O)cc2)nc(Nc2ccc(C(=O)NCc3ccc(Br)cc3)cc2)n1)c1ccccc1 [compound 109]
55.6 % of Ctl
O=C(NCCOCCOCCNc1nc(Nc2ccc(O)cc2)nc(Nc2ccc(C(=O)NCc3ccncc3)cc2)n1)c1ccccc1 [compound 71]
16.7 % of Ctl
O=C(NCCOCCOCCNc1nc(Nc2ccc(O)cc2)nc(Nc2ccc(CO)cc2)n1)c1ccccc1 [compound 26]
2.6 % of Ctl
COCCOCCOCCNc1nc(NCCOCCOCCNC(=O)c2ccccc2)nc(Nc2ccc(O)cc2)n1 [compound 11]
11.4 % of Ctl
O=C(NCCOCCNc1nc(Nc2ccc(O)cc2)nc(Nc2ccc(C(=O)NCc3ccccc3)cc2)n1)c1ccc(F)cc1 [compound 136]
64.1 % of Ctl
O=C(NCCOCCOCCNc1nc(Nc2ccc(O)cc2)nc(Nc2ccc(C(=O)N[C@H](C(=O)O)c3ccccc3)cc2)n1)c1ccccc1 [compound 80]
0.7 % of Ctl
O=C(NCCOCCNc1nc(Nc2ccc(O)cc2)nc(Nc2ccc(C(=O)NCc3ccc(F)cc3)cc2)n1)c1ccccc1 [compound 147]
70.2 % of Ctl
Nc1ccc(Nc2nc(NCCOCCOCCNC(=O)c3ccccc3)nc(Nc3ccc(O)cc3)n2)cc1 [compound 25]
12.9 % of Ctl
O=C(NCCOCCOCCNc1nc(Nc2ccc(O)cc2)nc(Nc2ccc(C(=O)NCc3ccc(F)cc3F)cc2)n1)c1ccccc1 [compound 131]
47.0 % of Ctl
O=C(NCCOCCOCCNc1nc(NCCO)nc(Nc2ccc(O)cc2)n1)c1ccccc1 [compound 10]
1.4 % of Ctl
O=C(NCCOCCOCCNc1nc(Nc2ccc(C(=O)NCc3ccccc3)cc2)nc(Nc2ccc3[nH]ncc3c2)n1)c1ccccc1 [compound 64]
15.5 % of Ctl
N[C@H](Cc1ccccc1)C(=O)NCCOCCNc1nc(Nc2ccc(O)cc2)nc(Nc2ccc(C(=O)NCc3ccccc3)cc2)n1 [compound 133]
12.6 % of Ctl
O=C(NCCOCCOCCNc1nc(Nc2ccc(O)cc2)nc(Nc2ccc(C(=O)NCc3cc(Cl)cc(Cl)c3)cc2)n1)c1ccccc1 [compound 108]
60.8 % of Ctl
